target: hTRPV4 (full-length; hTRPV4WT) (Homo sapiens, UniProt Q9HBA0, R594A); assay: calcium flux
Sequence (Q9HBA0 whole entry R594A): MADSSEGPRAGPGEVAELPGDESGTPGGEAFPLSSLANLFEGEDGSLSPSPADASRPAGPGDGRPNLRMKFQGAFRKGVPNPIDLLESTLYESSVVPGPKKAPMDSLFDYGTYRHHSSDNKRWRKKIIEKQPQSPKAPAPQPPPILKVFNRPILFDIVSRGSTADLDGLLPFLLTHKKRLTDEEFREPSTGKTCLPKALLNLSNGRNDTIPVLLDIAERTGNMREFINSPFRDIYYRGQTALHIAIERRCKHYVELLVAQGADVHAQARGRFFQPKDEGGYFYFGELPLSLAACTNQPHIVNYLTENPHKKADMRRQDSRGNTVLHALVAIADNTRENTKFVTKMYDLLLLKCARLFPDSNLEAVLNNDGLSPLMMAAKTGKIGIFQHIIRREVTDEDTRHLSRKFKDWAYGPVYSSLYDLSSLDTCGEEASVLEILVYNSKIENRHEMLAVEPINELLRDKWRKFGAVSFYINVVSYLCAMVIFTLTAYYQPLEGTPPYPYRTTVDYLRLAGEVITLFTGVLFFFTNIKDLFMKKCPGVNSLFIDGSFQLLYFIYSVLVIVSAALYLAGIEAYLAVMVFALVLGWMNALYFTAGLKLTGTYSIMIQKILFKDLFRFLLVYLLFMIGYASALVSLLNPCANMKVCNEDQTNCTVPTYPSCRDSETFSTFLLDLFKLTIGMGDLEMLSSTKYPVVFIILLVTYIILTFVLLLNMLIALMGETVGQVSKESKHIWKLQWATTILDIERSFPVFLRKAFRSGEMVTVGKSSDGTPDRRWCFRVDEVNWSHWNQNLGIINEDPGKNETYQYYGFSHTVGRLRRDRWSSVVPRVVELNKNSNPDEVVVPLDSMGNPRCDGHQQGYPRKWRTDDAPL
pEC50: −log10 of the molar value.
assay readout: pEC50

{"compound": "CC(C)C[C@H](NC(=O)c1cc2ccccc2s1)C(=O)N1CCN(C(=O)[C@H](CO)NS(=O)(=O)c2ccc(Cl)cc2Cl)CC1 [GSK1016790A]", "assay readout": "pEC50", "experimental value": "< 4.60"}

---

molecular target: hTRPV4 (full-length; hTRPV4WT) (Homo sapiens, UniProt Q9HBA0); assay: calcium flux
Sequence (Q9HBA0 whole entry): as the sequence (Q9HBA0 whole entry R594A) above, with A594R counted along it
pEC50: −log10 of the molar value.

{"compound": "CC(C)C[C@H](NC(=O)c1cc2ccccc2s1)C(=O)N1CCN(C(=O)[C@H](CO)NS(=O)(=O)c2ccc(Cl)cc2Cl)CC1 [GSK1016790A]", "pEC50": 8.92}

---

biological target: hTRPV4 (full-length; hTRPV4WT) (Homo sapiens, UniProt Q9HBA0, Y556A); experiment: calcium flux
Sequence (Q9HBA0 whole entry Y556A): as the sequence (Q9HBA0 whole entry R594A) above, with Y556A, A594R counted along it
assay readout: EC50 (nM)

{"compound": "CC(C)C[C@H](NC(=O)c1cc2ccccc2s1)C(=O)N1CCN(C(=O)[C@H](CO)NS(=O)(=O)c2ccc(Cl)cc2Cl)CC1 [GSK1016790A]", "subject of test": "hTRPV4 (full-length; hTRPV4WT) (Homo sapiens, UniProt Q9HBA0, Y556A)", "experimental value": 9.6}
